Source: patent US20250313612A1

- systemName: RSV F protein of recombinant mKate-RSV, subtype B (18537) (Respiratory syncytial virus subtype B …, UniProt P13843 26-574)
- experimentalProtocol: cell-based or functional assay

binder	inequalitySymbol	Neut IC50 subtype B [µg/mL]
ADI-14482 (antibody, V domains shown) VH: QVQLQQWGAGLVKPSETLSLTCAVSGGSFRGYQWNWFRQPPGKGLEWIGEINHGEYTHYNASLKSRVSLSIDTSKNQFSLNLTSVTAADTAMYFCARASSGTYNFEYWFDPWGQGTLVTVSS VL: SYVLTQPPSVSVAPGKTAWLTCGGNNIGNKRVHWYQQKPGQAPVLVVYDDYGRPSGTSERVSGSNSGNTATLTISRVEAGDEAEYYCQVWDDPSDHAVFGGGTQLTVL	=	0.031
ADI-14515 (antibody, V domains shown) VH: QVQLVQSGGGVVQPGSSLRLSCSASGFTFMTYGMHWARQAPGKGLEWVADISFDANKKYYRDSVKGRFTISRDNSKNTVYLQMNSLRPEDTAVYFCARNTIFGVVDYWGQGTLVTVSS VL: EIVLTQSPATLSVSPGERATLSCRASQSVSANLAWYQHKPGQAPRLLIYGASTRASDIPARFSGSGSGTEFTLTISSLQSEDSAVYYCQQYNNWPPWTFGQGTKVEIK	=	0.049
ADI-14496 (antibody, V domains shown) VH: QVQLVQSGAEVKKPGESLKISCQGSGYSFRSYWIGWVRQKPGKGLEYMGIIFPNDFDTRYSPSFQGQVTISVDKSTSTAFLQWTSLQASDTAIYYCGRQELQGSFTIWGQGTMVTVTS VL: DIVMTQSPSSLSASVGDRVTITCQASQDMGNSLNWYQQKSGKAPKLLIYDASYLDSGVPSRFSGSGSGTHFTFTISTLQPEDIATYYCQHYDNLLLFTFGPGTKLEIK	>	10
